assay: Pharmacokinetic study (PK), i.v., CD-1 mice; format: in vivo; settings: male, CD-1, in vivo, iv; mouse, i.v. 1 mg/kg, 1 h; read-out: Calc. Conc. (plasma)
Bridge positions count the residues as written; N and C are the ends. Square brackets hold non-standard residues; d marks the D form. Peptide text beside a SMILES is read from it. Lys(iPr) = CC(C)NCCCC[C@H](N)C(=O)O; Dab = NCC[C@H](N)C(=O)O
MEASUREMENT_NAME: level at 1 h (ng/mL)

{"columns": ["COMPOUND", "UNIT_STRING", "REPORTED_MEASUREMENT"],
 "data": [
  ["CC(C)NCCCC[C@@H]1NC(=O)[C@H](CCC(N)=O)NC(=O)[C@H](Cc2ccc(O)cc2)NC(=O)[C@@H]2CSSC[C@H](NC(=O)[C@H](C)NC(=O)[C@H](Cc3c[nH]cn3)NC(=O)[C@H](Cc3ccc(O)cc3)NC(=O)[C@@H]3CCCN3C(=O)[C@H]3CCCN3C1=O)C(=O)N[C@@H](CO)C(=O)N[C@@H](C)C(=O)N[C@H](Cc1ccc(O)cc1)C(=O)N[C@@H](CCN)C(=O)N[C@@H](CCCNC(=N)N)C(=O)N[C@@H](Cc1ccc(O)cc1)C(=O)N2 [Ex. 3] (cyclo(YHACSA[dY][Dab]RYCYQ[Lys(iPr)][dP]P); disulfide 4-11)", "ng/mL", 402]
]}

###

assay: Plasma stability, human plasma; format: in vitro ADME; conditions: 37° C., 1440 min, read-out: human pl. cpd left at 1440 min
Bridge positions count the residues as written; N and C are the ends. Square brackets hold non-standard residues; d marks the D form. Peptide text beside a SMILES is read from it. Lys(iPr) = CC(C)NCCCC[C@H](N)C(=O)O; Dab = NCC[C@H](N)C(=O)O
MEASUREMENT_NAME: remaining at 24 h, 10 μM (%)

{"columns": ["COMPOUND", "MEASUREMENT_NAME", "REPORTED_MEASUREMENT"],
 "data": [
  ["CC(C)NCCCC[C@@H]1NC(=O)[C@H](CCC(N)=O)NC(=O)[C@H](Cc2ccc(O)cc2)NC(=O)[C@@H]2CSSC[C@H](NC(=O)[C@H](C)NC(=O)[C@H](Cc3c[nH]cn3)NC(=O)[C@H](Cc3ccc(O)cc3)NC(=O)[C@@H]3CCCN3C(=O)[C@H]3CCCN3C1=O)C(=O)N[C@@H](CO)C(=O)N[C@@H](C)C(=O)N[C@H](Cc1ccc(O)cc1)C(=O)N[C@@H](CCN)C(=O)N[C@@H](CCCNC(=N)N)C(=O)N[C@@H](Cc1ccc(O)cc1)C(=O)N2 [Ex. 3] (cyclo(YHACSA[dY][Dab]RYCYQ[Lys(iPr)][dP]P); disulfide 4-11)", "remaining at 24 h, 10 μM", 100]
]}

###

assay: Pharmacokinetic study (PK), i.v., CD-1 mice; assay type: in vivo; conditions: male, CD-1, in vivo, iv; mouse, i.v. 1 mg/kg, 2 h; read-out: Calc. Conc. (plasma)
Bridge positions count the residues as written; N and C are the ends. Square brackets hold non-standard residues; d marks the D form. Peptide text beside a SMILES is read from it. Lys(iPr) = CC(C)NCCCC[C@H](N)C(=O)O; Dab = NCC[C@H](N)C(=O)O

{"columns": ["MOLECULE", "level at 2 h [ng/mL]"],
 "data": [
  ["CC(C)NCCCC[C@@H]1NC(=O)[C@H](CCC(N)=O)NC(=O)[C@H](Cc2ccc(O)cc2)NC(=O)[C@@H]2CSSC[C@H](NC(=O)[C@H](C)NC(=O)[C@H](Cc3c[nH]cn3)NC(=O)[C@H](Cc3ccc(O)cc3)NC(=O)[C@@H]3CCCN3C(=O)[C@H]3CCCN3C1=O)C(=O)N[C@@H](CO)C(=O)N[C@@H](C)C(=O)N[C@H](Cc1ccc(O)cc1)C(=O)N[C@@H](CCN)C(=O)N[C@@H](CCCNC(=N)N)C(=O)N[C@@H](Cc1ccc(O)cc1)C(=O)N2 [Ex. 3] (cyclo(YHACSA[dY][Dab]RYCYQ[Lys(iPr)][dP]P); disulfide 4-11)", 136]
]}
